# System: Escherichia coli
# Method description: Antimicrobial activity against extended spectrum beta-lactamases-producing Escherichia coli 10-3 after 18-24 hrs by two-fold serial dilution method
# Format: functional
Answer each item with its documented MIC.

Compound	MIC
COc1ccc(OC)c(CO/N=C2\CN(c3nc4c(cc3F)c(=O)c(C(=O)O)cn4C3CC3)CC2CN)c1.CS(=O)(=O)O (racemic)	> 128 µg/mL
CS(=O)(=O)O.NCC1CN(c2nc3c(cc2F)c(=O)c(C(=O)O)cn3C2CC2)C/C1=N\OCc1ccc2c(c1)OCCO2 (racemic)	> 128 µg/mL

Dear reader, for each entry below, please note its MIC.
1. COc1cc(CO/N=C2\CN(c3nc4c(cc3F)c(=O)c(C(=O)O)cn4C3CC3)CC2CN)cc(OC)c1OC.CS(=O)(=O)O (racemic)
2. COc1ccc(CO/N=C2\CN(c3nc4c(cc3F)c(=O)c(C(=O)O)cn4C3CC3)CC2CN)c(Cl)c1OC.CS(=O)(=O)O (racemic)

## Result
1. 16 µg/mL
2. > 128 µg/mL

* * *

Answer each item with its documented MIC.
# Test system: Staphylococcus epidermidis
# Method description: Antimicrobial activity against extended spectrum beta-lactamases-producing methicillin-resistant Staphylococcus epidermidis 10-13 after 18-24 hrs by two-fold serial dilution method
# Type: functional
Numbers only, in µg/mL.

Molecule	Unit info	Value
COc1cc(Br)c(CO/N=C2\CN(c3nc4c(cc3F)c(=O)c(C(=O)O)cn4C3CC3)CC2CN)cc1OC.CS(=O)(=O)O (racemic)	µg/mL	0.25

Dear reader, for each entry below, please note its MIC.
1. COc1cc(CO/N=C2\CN(c3nc4c(cc3F)c(=O)c(C(=O)O)cn4C3CC3)CC2CN)cc(Cl)c1OC.CS(=O)(=O)O (racemic)
2. COc1ccc(CO/N=C2\CN(c3nc4c(cc3F)c(=O)c(C(=O)O)cn4C3CC3)CC2CN)cc1.CS(=O)(=O)O (racemic)
3. COc1ccc(OC)c(CO/N=C2\CN(c3nc4c(cc3F)c(=O)c(C(=O)O)cn4C3CC3)CC2CN)c1.CS(=O)(=O)O (racemic)
4. COc1cccc(OC)c1CO/N=C1\CN(c2nc3c(cc2F)c(=O)c(C(=O)O)cn3C2CC2)CC1CN.CS(=O)(=O)O (racemic)

## Result
1: 0.25; 2: 0.5; 3: 0.25; 4: 0.25

Dear reader, for each entry below, please note its MIC.
1. CS(=O)(=O)O.NCC1CN(c2nc3c(cc2F)c(=O)c(C(=O)O)cn3C2CC2)C/C1=N\OCc1ccc2c(c1)OCO2 (racemic)
2. COc1cc(F)c(CO/N=C2\CN(c3nc4c(cc3F)c(=O)c(C(=O)O)cn4C3CC3)CC2CN)cc1OC.CS(=O)(=O)O (racemic)
3. COc1cc(CO/N=C2\CN(c3nc4c(cc3F)c(=O)c(C(=O)O)cn4C3CC3)CC2CN)ccc1OCc1ccccc1.CS(=O)(=O)O (racemic)
4. CS(=O)(=O)O.Cc1ccc(CO/N=C2\CN(c3nc4c(cc3F)c(=O)c(C(=O)O)cn4C3CC3)CC2CN)cc1C (racemic)
5. C[C@H]1COc2c(N3CCN(C)CC3)c(F)cc3c(=O)c(C(=O)O)cn1c23.C[C@H]1COc2c(N3CCN(C)CC3)c(F)cc3c(=O)c(C(=O)O)cn1c23.O
6. CS(=O)(=O)O.NCC1CN(c2nc3c(cc2F)c(=O)c(C(=O)O)cn3C2CC2)C/C1=N\OCc1cc2c(cc1[N+](=O)[O-])OCO2 (racemic)

## Result
0.5
0.25
1
1
4
1

Dear reader, for each entry below, please note its MIC.
1. COc1cc(CO/N=C2\CN(c3nc4c(cc3F)c(=O)c(C(=O)O)cn4C3CC3)CC2CN)c([N+](=O)[O-])cc1OC.CS(=O)(=O)O (racemic)
2. CS(=O)(=O)O.NCC1CN(c2nc3c(cc2F)c(=O)c(C(=O)O)cn3C2CC2)C/C1=N\OCc1cc2c(cc1Cl)OCO2 (racemic)
3. COc1ccc(CO/N=C2\CN(c3nc4c(cc3F)c(=O)c(C(=O)O)cn4C3CC3)CC2CN)c(OC)c1.CS(=O)(=O)O (racemic)
4. COc1cc(CO/N=C2\CN(c3nc4c(cc3F)c(=O)c(C(=O)O)cn4C3CC3)CC2CN)cc(OC)c1OC.CS(=O)(=O)O (racemic)
5. COc1cccc(CO/N=C2\CN(c3nc4c(cc3F)c(=O)c(C(=O)O)cn4C3CC3)CC2CN)c1OC.CS(=O)(=O)O (racemic)
6. COc1ccc(CO/N=C2\CN(c3nc4c(cc3F)c(=O)c(C(=O)O)cn4C3CC3)CC2CN)c([N+](=O)[O-])c1OC.CS(=O)(=O)O (racemic)

## Result
1: 1; 2: 2; 3: 0.5; 4: 0.5; 5: 0.25; 6: 0.5

* * *

# Tested on: Pseudomonas aeruginosa
# Method description: Antimicrobial activity against extended spectrum beta-lactamases-producing Pseudomonas aeruginosa 10-5 after 18-24 hrs by two-fold serial dilution method
# Format: functional
Answer each item with its documented log10 of MIC.
Kindly note that the scale is log10 and the underlying MIC is in µg/mL.

Compound	log10 of MIC
CS(=O)(=O)O.NCC1CN(c2nc3c(cc2F)c(=O)c(C(=O)O)cn3C2CC2)C/C1=N\OCc1ccc(OCc2ccccc2)cc1 (racemic)	1.20

Dear reader, for each entry below, please note its log10 of MIC.
1. CS(=O)(=O)O.NCC1CN(c2nc3c(cc2F)c(=O)c(C(=O)O)cn3C2CC2)C/C1=N\OCc1ccc2c(c1)OCCO2 (racemic)
2. C[C@H]1COc2c(N3CCN(C)CC3)c(F)cc3c(=O)c(C(=O)O)cn1c23.C[C@H]1COc2c(N3CCN(C)CC3)c(F)cc3c(=O)c(C(=O)O)cn1c23.O [LEVOFLOXACIN]
3. CO/N=C1\CN(c2nc3c(cc2F)c(=O)c(C(=O)O)cn3C2CC2)CC1CN (stereo unspecified) [GEMIFLOXACIN]
4. COc1ccc(CO/N=C2\CN(c3nc4c(cc3F)c(=O)c(C(=O)O)cn4C3CC3)CC2CN)c([N+](=O)[O-])c1OC.CS(=O)(=O)O (racemic)

## Result
1: 0.30; 2: -0.60; 3: -0.30; 4: 0.90

* * *

Answer each item with its documented MIC.
# Test system: Pseudomonas aeruginosa
# Method description: Antimicrobial activity against extended spectrum beta-lactamases-producing Pseudomonas aeruginosa 10-5 after 18-24 hrs by two-fold serial dilution method
# Format: functional

Molecule	MIC
COc1cc(F)c(CO/N=C2\CN(c3nc4c(cc3F)c(=O)c(C(=O)O)cn4C3CC3)CC2CN)cc1OC.CS(=O)(=O)O (racemic)	> 128 µg/mL
CS(=O)(=O)O.NCC1CN(c2nc3c(cc2F)c(=O)c(C(=O)O)cn3C2CC2)C/C1=N\OCc1ccccc1 (racemic)	8 µg/mL

Dear reader, for each entry below, please note its MIC.
1. CS(=O)(=O)O.Cc1ccc(CO/N=C2\CN(c3nc4c(cc3F)c(=O)c(C(=O)O)cn4C3CC3)CC2CN)cc1C (racemic)
2. COc1ccc(CO/N=C2\CN(c3nc4c(cc3F)c(=O)c(C(=O)O)cn4C3CC3)CC2CN)cc1OC.CS(=O)(=O)O (racemic)
3. COc1cccc(OC)c1CO/N=C1\CN(c2nc3c(cc2F)c(=O)c(C(=O)O)cn3C2CC2)CC1CN.CS(=O)(=O)O (racemic)
4. COc1ccc(CO/N=C2\CN(c3nc4c(cc3F)c(=O)c(C(=O)O)cn4C3CC3)CC2CN)cc1.CS(=O)(=O)O (racemic)

## Result
["4 µg/mL", "2 µg/mL", "4 µg/mL", "4 µg/mL"]

Dear reader, for each entry below, please note its MIC.
1. CS(=O)(=O)O.NCC1CN(c2nc3c(cc2F)c(=O)c(C(=O)O)cn3C2CC2)C/C1=N\OCc1cc2c(cc1[N+](=O)[O-])OCO2 (racemic)
2. COc1cc(CO/N=C2\CN(c3nc4c(cc3F)c(=O)c(C(=O)O)cn4C3CC3)CC2CN)cc(Cl)c1OC.CS(=O)(=O)O (racemic)

## Result
1: 8 µg/mL; 2: 16 µg/mL

* * *

# System: Klebsiella pneumoniae
# Method description: Antimicrobial activity against extended spectrum beta-lactamases-producing Klebsiella pneumoniae 10-3 after 18-24 hrs by two-fold serial dilution method
# Assay type: functional
Parameter measured: MIC

Examples with their reported MIC follow.
Compound	MIC
COc1cccc(CO/N=C2\CN(c3nc4c(cc3F)c(=O)c(C(=O)O)cn4C3CC3)CC2CN)c1OC.CS(=O)(=O)O (racemic)	> 128 µg/mL
COc1cc(CO/N=C2\CN(c3nc4c(cc3F)c(=O)c(C(=O)O)cn4C3CC3)CC2CN)cc(Cl)c1OC.CS(=O)(=O)O (racemic)	> 128 µg/mL

Dear reader, for each entry below, please note its MIC.
1. COc1ccc(CO/N=C2\CN(c3nc4c(cc3F)c(=O)c(C(=O)O)cn4C3CC3)CC2CN)cc1.CS(=O)(=O)O (racemic)
2. COc1ccc(CO/N=C2\CN(c3nc4c(cc3F)c(=O)c(C(=O)O)cn4C3CC3)CC2CN)c(OC)c1.CS(=O)(=O)O (racemic)
3. CO/N=C1\CN(c2nc3c(cc2F)c(=O)c(C(=O)O)cn3C2CC2)CC1CN (stereo unspecified)
4. COc1ccc(CO/N=C2\CN(c3nc4c(cc3F)c(=O)c(C(=O)O)cn4C3CC3)CC2CN)c([N+](=O)[O-])c1OC.CS(=O)(=O)O (racemic)

## Result
["128 µg/mL", "> 128 µg/mL", "16 µg/mL", "> 128 µg/mL"]
